The reported measurements were obtained from the supplement of paper PMC9732359.

Consider the following sequences; for each one, report its protein stability index.
- TEST_DETAILS: protein stability index of a GFP-peptide fusion (yeast GPS) (PSI 1-4); higher = more stable; sorted into four equal gates, so the index is relative within each strain
- CONDITION_INFO: san1∆
Just the number, please.

Value lookup for protein stability index; key = DTNSSKPKNTKENLSKS [SIR4]
2.05

Looking for the measured protein stability index of NTSAKNKNGENKKIGKR [SIR4] , can you help?
3.03

Item under review: TLQDFHLIFSNARIYNT [SNF2] . Reported protein stability index?
1.63

Endpoint output: protein stability index of ADDEKSDEEEVTEMSNN [BRR2] . Value?
2.84

Can you look up the measured protein stability index of EPIKLEPVKEYTFKTSM [YMR129W/POM152] for me?
1.99

Recorded protein stability index for KAPEQFIENFLTNDTFE [YML103C/NUP188] , please?
2.93

Given the entry DNIYRNLQKIDKDSEEL [MED4] , report its measured protein stability index.
2.85

Fill in: protein stability index of NSSRFSDPMLQRTATLC [YCS4] is ___
3.21

Param item = GSEVRLRDDTLPKAWIS [COR1] ; retrieve measured protein stability index.
2.72

Can you look up the measured protein stability index of TFVYILEKLIFDMTNHY [SRB8] for me?
1.69

Need protein stability index of LMRQGVLGIKVKIMRDP [RPS3] , thanks.
2.25

May I ask what protein stability index has been recorded for PFQLDVADMLTPEYAAE [UBP6] ?
2.7

State the recorded protein stability index for this entry: EGIKETQAKRIFLQQFL [SWI1]
2.74

I am curious: what protein stability index value has been reported for AITISNSIDINYKGLPK [SMC1] ?
2.54
